# Test system: HT-29
# Experiment Notes: Cytotoxicity against human HT-29 cells after 24 hrs by MTT assay
# Type: functional, cell-based
# Condition: HT-29, 24 h
Measurement Type: IC50 (µM)
Write the answer as a number in µM, unit excluded.

Which measured IC50 value corresponds to `COc1ccc(OC2=CC(=O)c3cc4ccccc4cc3C2=O)cc1` ? 3.83

Which measured IC50 value corresponds to `O=C1C=C(Oc2ccccc2)C(=O)c2ccccc21` ? 4.4

Which measured IC50 value corresponds to `COc1cccc2c1C(=O)C(Oc1ccc(F)cc1)=CC2=O` ? 2.7

Which measured IC50 value corresponds to `O=C1C(Oc2ccccc2)=CC(=O)c2c(O)cccc21` ? 2.42

----------
# Assay System: Glyceraldehyde-3-phosphate dehydrogenase (Homo sapiens, UniProt P04406)
# Sequence (P04406 whole entry): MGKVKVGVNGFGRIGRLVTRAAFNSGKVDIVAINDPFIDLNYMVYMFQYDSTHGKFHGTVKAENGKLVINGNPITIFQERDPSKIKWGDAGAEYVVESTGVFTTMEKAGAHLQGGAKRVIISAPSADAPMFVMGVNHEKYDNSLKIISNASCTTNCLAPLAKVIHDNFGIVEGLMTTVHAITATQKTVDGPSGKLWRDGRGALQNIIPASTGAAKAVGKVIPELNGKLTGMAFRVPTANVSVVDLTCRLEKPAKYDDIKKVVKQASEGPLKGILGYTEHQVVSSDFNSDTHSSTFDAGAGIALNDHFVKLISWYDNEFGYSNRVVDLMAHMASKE
# Experiment Notes: Inhibition of recombinant human GAPDH assessed as oxidative phosphorylation of D-glyceraldehyde-3-phosphate to 1,3-bisphosphoglycerate by spectrophotometric method
Please go through the items and note down their pIC50.
A value of pIC50 is the negative decimal logarithm of a concentration given in moles per litre.

Which measured pIC50 value corresponds to `O=C1C=C(Oc2ccccc2)C(=O)c2ccccc21` ? 6.23

Which measured pIC50 value corresponds to `COc1ccc(OC2=CC(=O)c3cc4ccccc4cc3C2=O)cc1` ? 5.85

Which measured pIC50 value corresponds to `COc1cccc2c1C(=O)C(Oc1ccc(F)cc1)=CC2=O` ? 5.87

Which measured pIC50 value corresponds to `O=C1C(Oc2ccccc2)=CC(=O)c2c(O)cccc21` ? 5.62

----------
Please go through the items and note down their inhibition.
# Tested on: Trypanosoma brucei
# Experiment Notes: Inhibition of recombinant Trypanosoma brucei GAPDH assessed as oxidative phosphorylation of D-glyceraldehyde-3-phosphate to 1,3-bisphosphoglycerate at 5 uM by spectrophotometric method relative to 2-phenoxy-1,4-naphthoquinone
Write the answer as a number in %, unit excluded.

Which measured inhibition value corresponds to `COc1cccc2c1C(=O)C=C(Oc1ccc(NC(C)=O)cc1)C2=O` ? 52

Which measured inhibition value corresponds to `COc1ccc(OC2=CC(=O)c3c(O)cccc3C2=O)cc1` ? 24

Which measured inhibition value corresponds to `CC(=O)Nc1ccc(OC2=CC(=O)c3ccccc3C2=O)cc1` ? 68

Which measured inhibition value corresponds to `O=C1C=C(Oc2ccc(F)cc2)C(=O)c2ccccc21` ? 80

Which measured inhibition value corresponds to `COc1cccc2c1C(=O)C=C(Oc1ccccc1)C2=O` ? 88

Which measured inhibition value corresponds to `COc1cccc2c1C(=O)C(Oc1ccc(NC(C)=O)cc1)=CC2=O` ? 64

Which measured inhibition value corresponds to `O=C1C=C(Oc2ccc(F)cc2)C(=O)c2cc3ccccc3cc21` ? 32

Which measured inhibition value corresponds to `O=C1C(Oc2ccccc2)=CC(=O)c2c(O)cccc21` ? 88

Which measured inhibition value corresponds to `CC(=O)Nc1ccc(OC2=CC(=O)c3c(O)cccc3C2=O)cc1` ? 0

Which measured inhibition value corresponds to `Cc1ccc(OC2=CC(=O)c3cccc(O)c3C2=O)cc1` ? 44

----------
# Species on record: Bos taurus
# Experiment Notes: Inhibition of electron transport protein complex 2 in bovine hear mitochondria assessed as reduction of succinate-induced oxygen consumption at 5 uM
Calls of active or inactive are those of the source. No cut-off for these calls is given here.
Measurement Type: inhibition

Entry Smiles	Recorded Value
O=C1C=C(Oc2ccc(F)cc2)C(=O)c2cc3ccccc3cc21	inactive
COc1cccc2c1C(=O)C=C(Oc1ccc(NC(C)=O)cc1)C2=O	inactive
COc1ccc(OC2=CC(=O)c3cc4ccccc4cc3C2=O)cc1	inactive
O=C1C(Oc2ccc(F)cc2)=CC(=O)c2c(O)cccc21	inactive
COc1ccc(OC2=CC(=O)c3ccccc3C2=O)cc1	inactive
CC(=O)Nc1ccc(OC2=CC(=O)c3cccc(O)c3C2=O)cc1	inactive

Attention now turns to another entry.
Which measured inhibition value corresponds to `COc1ccc(OC2=CC(=O)c3cccc(OC)c3C2=O)cc1` ? inactive
